# target-under-test: kinases (Homo sapiens, UniProt P35916)
# Construct: purchased Eurofins/DiscoveRx; host or cells: E. coli BL21-derived host (T7 phage display) for most kinases; HEK-293 for the rest
# Sequence (P35916 25-1363): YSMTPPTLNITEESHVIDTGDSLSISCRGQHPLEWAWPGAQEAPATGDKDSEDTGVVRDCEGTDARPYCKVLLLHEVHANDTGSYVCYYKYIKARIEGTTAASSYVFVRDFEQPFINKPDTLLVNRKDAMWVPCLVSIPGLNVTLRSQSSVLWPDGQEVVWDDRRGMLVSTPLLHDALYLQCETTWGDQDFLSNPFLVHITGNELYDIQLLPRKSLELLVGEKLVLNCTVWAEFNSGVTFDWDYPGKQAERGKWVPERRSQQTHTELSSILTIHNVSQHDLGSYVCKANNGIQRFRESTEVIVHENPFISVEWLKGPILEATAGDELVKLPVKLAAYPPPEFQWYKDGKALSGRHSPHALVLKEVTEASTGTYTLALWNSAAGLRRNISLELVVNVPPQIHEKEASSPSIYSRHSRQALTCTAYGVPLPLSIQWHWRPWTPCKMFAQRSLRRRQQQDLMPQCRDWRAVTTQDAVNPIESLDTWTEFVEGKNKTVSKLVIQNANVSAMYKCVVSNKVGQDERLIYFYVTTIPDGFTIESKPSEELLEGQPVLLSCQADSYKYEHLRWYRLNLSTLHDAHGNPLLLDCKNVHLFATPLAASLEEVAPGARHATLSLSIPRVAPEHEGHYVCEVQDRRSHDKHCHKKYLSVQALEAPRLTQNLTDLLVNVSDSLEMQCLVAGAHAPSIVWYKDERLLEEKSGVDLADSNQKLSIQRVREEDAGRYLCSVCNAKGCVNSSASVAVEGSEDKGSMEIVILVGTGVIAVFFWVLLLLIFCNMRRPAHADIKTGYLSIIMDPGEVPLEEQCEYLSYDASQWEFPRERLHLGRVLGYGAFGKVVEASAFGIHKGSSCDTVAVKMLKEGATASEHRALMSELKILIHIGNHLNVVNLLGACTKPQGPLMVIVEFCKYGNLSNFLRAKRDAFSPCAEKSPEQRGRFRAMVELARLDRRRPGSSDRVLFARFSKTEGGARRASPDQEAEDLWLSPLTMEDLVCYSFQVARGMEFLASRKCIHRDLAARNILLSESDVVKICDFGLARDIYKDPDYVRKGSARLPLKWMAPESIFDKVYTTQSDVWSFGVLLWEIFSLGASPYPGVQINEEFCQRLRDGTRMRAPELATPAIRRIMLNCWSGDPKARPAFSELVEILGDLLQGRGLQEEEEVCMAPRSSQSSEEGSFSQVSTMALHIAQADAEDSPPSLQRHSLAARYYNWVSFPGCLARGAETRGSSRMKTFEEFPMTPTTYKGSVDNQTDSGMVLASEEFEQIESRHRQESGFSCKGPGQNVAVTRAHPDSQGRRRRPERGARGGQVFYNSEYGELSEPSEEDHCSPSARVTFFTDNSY
# assay-text: KINOMEscan kinase binding assay (Eurofins/DiscoveRx), % Ctrl
# condition-notes: 1 μM; FLT4
readout-label: % Ctrl, FLT4 (% Ctrl)

Known % Ctrl, FLT4 results, listed for orientation:
Cc1cc2c([nH]1)/C=C1\C(=O)Nc3ccc(cc31)-c1c(C)n[nH]c1CNCCN(C)C2=O :: 2.1
Cc1cc2c([nH]1)/C=C1\C(=O)Nc3ccc(nc31)-c1ccccc1OCCCNC2=O :: 92
Cc1cc2c([nH]1)/C=C1\C(=O)Nc3ccc(cc31)-c1cnn(C)c1COCCN(C)C2=O :: 0.15
Cc1cc2c([nH]1)/C=C1\C(=O)Nc3ccc(cc31)-c1ccnn1CCNCCNC2=O :: 91
Cc1cc2c([nH]1)/C=C1\C(=O)Nc3cc(Cl)c(cc31)OCCO[C@@H](C(=O)N(C)C)CN(C)C2=O :: 95

A = Cc1cc2c([nH]1)/C=C1\C(=O)Nc3cc(Cl)c(cc31)OCCO[C@@H](C(=O)NC1CNC1)CN(C)C2=O
B = Cc1cc2c([nH]1)/C=C1\C(=O)Nc3ccc(cc31)-c1ccnn1CCOCCN(C)C2=O
C = Cc1cc2c([nH]1)/C=C1\C(=O)Nc3ccc(cc31)-c1cnn(C)c1CN(C)CCN(C)C2=O
IN: Put these in order: smallest % Ctrl, FLT4 first, largest last. Kindly provide the labels arranged according to the requested ordering.
OUT: C, B, A
(C: 0 % Ctrl, B: 62 % Ctrl, A: 98 % Ctrl)

A = CNC(=O)[C@H]1CN(C)C(=O)c2cc(C)[nH]c2/C=C2\C(=O)Nc3cc(Cl)c(cc32)OCCO1
B = Cc1cc2c([nH]1)/C=C1\C(=O)Nc3ccc(cc31)-c1c(noc1C)COCCN(C)C2=O
C = Cc1cc2c([nH]1)/C=C1\C(=O)Nc3ccc(cc31)OCCOCCN(C)C2=O
D = Cc1cc2c([nH]1)/C=C1\C(=O)Nc3ccc(cc31)-c1cnn(C)c1CNCCN(C)C2=O
E = Cc1cc2c([nH]1)/C=C1\C(=O)Nc3cc(Cl)c(cc31)OCCOCCN(C)C2=O
IN: Thanks in advance: please rank these 5 entries by % Ctrl, FLT4, highest to lowest. Kindly provide the labels arranged according to the requested ordering.
OUT: A, B, C, D, E
(A: 100 % Ctrl, B: 45 % Ctrl, C: 9.9 % Ctrl, D: 0.11 % Ctrl, E: 0 % Ctrl)

----------
# target-under-test: kinases (Homo sapiens, UniProt P00519, F317I)
# Construct: purchased Eurofins/DiscoveRx; host or cells: E. coli BL21-derived host (T7 phage display) for most kinases; HEK-293 for the rest
# assay-text: KINOMEscan kinase binding assay (Eurofins/DiscoveRx), % Ctrl
# condition-notes: 1 μM; ABL1(F317I)-phosphorylated
readout-label: % Ctrl, ABL1(F317I)-phosphorylated (% Ctrl)

Cc1cc2c([nH]1)/C=C1\C(=O)Nc3ccc(cc31)-c1c(C)n[nH]c1CNCCN(C)C2=O [Ex. 127] :: 5.5
Cc1cc2c([nH]1)/C=C1\C(=O)Nc3cc(Cl)c(cc31)OCCO[C@@H](C(=O)NC1CCNCC1)CN(C)C2=O [Ex. 134] :: 70
Cc1cc2c([nH]1)/C=C1\C(=O)Nc3ccc(nc31)-c1ccccc1OCCCNC2=O [Ex.22] :: 100

1 = Cc1cc2c([nH]1)/C=C1\C(=O)Nc3ccc(cc31)OCCOCCN(C)C2=O [Ex.91]
2 = Cc1cc2c([nH]1)/C=C1\C(=O)Nc3cc(Cl)c(cc31)OCCO[C@@H](C(=O)N(C)C)CN(C)C2=O [Ex. 137]
IN: Name the one with the greater % Ctrl, ABL1(F317I)-phosphorylated value, either 1 or 2 as given. Choose, then provide that item's label.
OUT: 2

----------
# target-under-test: kinases (Homo sapiens, UniProt P00519, T315I)
# Construct: purchased Eurofins/DiscoveRx; host or cells: E. coli BL21-derived host (T7 phage display) for most kinases; HEK-293 for the rest
# assay-text: KINOMEscan kinase binding assay (Eurofins/DiscoveRx), % Ctrl
# condition-notes: 1 μM; ABL1(T315I)-nonphosphorylated
readout-label: % Ctrl, ABL1(T315I)-nonphosphorylated (% Ctrl)

Cc1cc2c([nH]1)/C=C1\C(=O)Nc3ccc(cc31)-c1cnn(C)c1CNCCN(C)C2=O :: 0
Cc1cc2c([nH]1)/C=C1\C(=O)Nc3ccc(cc31)CN(C)C(=O)COCCNC2=O :: 90

1 = Cc1cc2c([nH]1)/C=C1\C(=O)Nc3ccc(cc31)-c1ccnn1CCNCCNC2=O
2 = Cc1cc2c([nH]1)/C=C1\C(=O)Nc3ccc(cc31)-c1c(C)n[nH]c1CNCCN(C)C2=O
3 = Cc1cc2c([nH]1)/C=C1\C(=O)Nc3ccc(cc31)-c1ccnn1CCOCCN(C)C2=O
IN: Put these in order: smallest % Ctrl, ABL1(T315I)-nonphosphorylated first, largest last. Kindly provide the labels arranged according to the requested ordering.
OUT: 2, 3, 1

----------
# target-under-test: kinases (Homo sapiens, UniProt P00533)
# Construct: purchased Eurofins/DiscoveRx; host or cells: E. coli BL21-derived host (T7 phage display) for most kinases; HEK-293 for the rest
# Sequence (P00533 25-1210): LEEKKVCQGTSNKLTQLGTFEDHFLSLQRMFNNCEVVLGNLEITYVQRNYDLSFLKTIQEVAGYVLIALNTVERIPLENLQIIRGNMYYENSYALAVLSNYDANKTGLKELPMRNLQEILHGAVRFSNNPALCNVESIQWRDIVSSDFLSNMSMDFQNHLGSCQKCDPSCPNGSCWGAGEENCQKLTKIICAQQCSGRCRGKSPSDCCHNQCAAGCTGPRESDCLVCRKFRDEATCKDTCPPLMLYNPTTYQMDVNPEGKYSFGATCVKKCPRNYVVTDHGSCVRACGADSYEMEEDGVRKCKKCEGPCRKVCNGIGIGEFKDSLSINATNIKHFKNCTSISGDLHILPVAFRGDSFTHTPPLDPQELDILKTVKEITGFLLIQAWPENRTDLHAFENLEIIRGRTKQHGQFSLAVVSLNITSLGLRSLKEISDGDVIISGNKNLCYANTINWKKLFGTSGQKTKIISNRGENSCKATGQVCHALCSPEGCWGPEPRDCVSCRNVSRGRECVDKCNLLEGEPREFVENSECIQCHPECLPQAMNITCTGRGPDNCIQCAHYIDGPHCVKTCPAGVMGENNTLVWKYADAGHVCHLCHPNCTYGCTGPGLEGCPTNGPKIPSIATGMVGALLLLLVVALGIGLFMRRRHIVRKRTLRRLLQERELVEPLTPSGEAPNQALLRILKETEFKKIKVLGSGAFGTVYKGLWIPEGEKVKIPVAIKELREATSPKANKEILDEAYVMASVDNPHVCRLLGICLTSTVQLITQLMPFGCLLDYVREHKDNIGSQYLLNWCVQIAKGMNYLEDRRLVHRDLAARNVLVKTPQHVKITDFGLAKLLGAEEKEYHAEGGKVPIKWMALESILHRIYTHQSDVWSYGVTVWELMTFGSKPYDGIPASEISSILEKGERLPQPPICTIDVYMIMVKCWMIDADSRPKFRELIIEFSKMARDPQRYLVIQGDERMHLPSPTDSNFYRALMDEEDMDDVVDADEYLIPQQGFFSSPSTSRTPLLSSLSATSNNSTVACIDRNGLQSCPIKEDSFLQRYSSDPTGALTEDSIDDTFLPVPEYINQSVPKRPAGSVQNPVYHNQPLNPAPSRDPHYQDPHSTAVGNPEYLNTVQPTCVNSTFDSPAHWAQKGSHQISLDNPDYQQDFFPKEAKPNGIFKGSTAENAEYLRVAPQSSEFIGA
# assay-text: KINOMEscan kinase binding assay (Eurofins/DiscoveRx), % Ctrl
# condition-notes: 1 μM; EGFR
# Experimental: Kinase binding assays were performed at Eurofins/DiscoveRx using the general KINOMEscan Protocol (Fabian, M. A. et al., “A small molecule-kinase interaction map for clinical kinase inhibitors,” Nat. Biotechnol. 2005, 23(3):329-36). For most assays, kinase-tagged T7 phage strains were prepared in an E. coli host derived from the BL21 strain. […] The kinase concentration in the eluates was measured by qPCR. […]
readout-label: % Ctrl, EGFR (% Ctrl)

Known % Ctrl, EGFR results, listed for orientation:
CNC(=O)[C@H]1CN(C)C(=O)c2cc(C)[nH]c2/C=C2\C(=O)Nc3cc(Cl)c(cc32)OCCO1 :: 100
Cc1cc2c([nH]1)/C=C1\C(=O)Nc3cc(Cl)c(cc31)OCCO[C@@H](C(=O)NC1CCNCC1)CN(C)C2=O :: 96
Cc1cc2c([nH]1)/C=C1\C(=O)Nc3ccc(cc31)-c1cnn(C)c1COCCN(C)C2=O :: 50
Cc1cc2c([nH]1)/C=C1\C(=O)Nc3cc(Cl)c(cc31)OCCO[C@@H](C(=O)N[C@@H]1CCNC1)CN(C)C2=O :: 98

I = Cc1cc2c([nH]1)/C=C1\C(=O)Nc3cc(Cl)c(cc31)OCCO[C@@H](C(=O)N(C)C)CN(C)C2=O
II = Cc1cc2c([nH]1)/C=C1\C(=O)Nc3ccc(cc31)-c1c(C)n[nH]c1CNCCN(C)C2=O
III = Cc1cc2c([nH]1)/C=C1\C(=O)Nc3ccc(cc31)-c1cnn(C)c1CNCCN(C)C2=O
IN: Put these in order: smallest % Ctrl, EGFR first, largest last. Kindly provide the labels arranged according to the requested ordering.
OUT: II, III, I

----------
# target-under-test: kinases (Homo sapiens, UniProt P36888, N841I)
# Construct: purchased Eurofins/DiscoveRx; host or cells: E. coli BL21-derived host (T7 phage display) for most kinases; HEK-293 for the rest
# assay-text: KINOMEscan kinase binding assay (Eurofins/DiscoveRx), % Ctrl
# condition-notes: 1 μM; FLT3(N841I)
readout-label: % Ctrl, FLT3(N841I) (% Ctrl)

Cc1cc2c([nH]1)/C=C1\C(=O)Nc3cnc(cc31)-c1cnn(C)c1COCCNC2=O :: 95

I = Cc1cc2c([nH]1)/C=C1\C(=O)Nc3cc(Cl)c(cc31)OCCO[C@@H](C(=O)N(C)C)CN(C)C2=O
II = Cc1cc2c([nH]1)/C=C1\C(=O)Nc3ccc(cc31)CN(C)C(=O)COCCNC2=O
IN: Name the one with the greater % Ctrl, FLT3(N841I) value, either I or II as given. Choose, then provide that item's label.
OUT: I
(I: 49 % Ctrl, II: 14 % Ctrl)

I = Cc1cc2c([nH]1)/C=C1\C(=O)Nc3ccc(cc31)-c1ccnn1CCOCCNC2=O
II = Cc1cc2c([nH]1)/C=C1\C(=O)Nc3ccc(cc31)OCCOCCN(C)C2=O
III = Cc1cc2c([nH]1)/C=C1\C(=O)Nc3cc(Cl)c(cc31)OCCO[C@@H](C(=O)N[C@@H]1CCNC1)CN(C)C2=O
IV = Cc1cc2c([nH]1)/C=C1\C(=O)Nc3ccc(cc31)-c1c(C)n[nH]c1CNCCN(C)C2=O
IN: Thanks in advance: please rank these 4 entries by % Ctrl, FLT3(N841I), highest to lowest. Kindly provide the labels arranged according to the requested ordering.
OUT: I, III, IV, II
